Measured values drawn from PubChem BioAssay (NCI) for this set.

Tested on: HOP-18 NSCLC
Assay: NCI tumour cell line growth inhibition, 48 h
Value type: TGI

[[record]]
molecule = "COc1ccc(NC(=O)CC(=O)n2nc(-c3ccccc3)c(N=Nc3ccccc3C)c2-c2ccccc2)cc1"
value_type = "TGI"
result = "> 100 µM"

[[record]]
molecule = "CC(=O)O[C@]12CCCCC1C1(O)C(O)CCCC[C@H]12 (some centres undefined)"
value_type = "TGI"
result = "> 100 µM"


Short answer for CNC(=O)OCc1cc2ccncc2c2c1[nH]c1ccccc12 : TGI was > 100 µM

The molecule listed as COc1cc(O)c2c(c1O)C(=O)c1cc(C)ncc1C2=O has a reported TGI of > 50 µM

Sure, the documented TGI for CCOC(=O)NN(C(=O)OCC)C(C(=O)c1ccc(Cl)cc1)=C1NCCN1 is > 100 µM

Documented TGI of CCOC1=C2C(C)(CCC3[C@@]4(C)C=CC(=O)C(C)(C)C4CC(O)[C@@]23C)C(c2ccoc2)C1=O (some centres undefined) : > 100 µM

Value of TGI reported for the molecule O=[N+]([O-])c1cc([N+](=O)[O-])c(C(Cl)C(Cl)c2ccccc2)cc1C(Cl)C(Cl)c1ccccc1 (centres undefined) is 3.53 µM

The molecule listed as COc1cc2c(cc1OC)C1(c3ccccc3)ON=C(c3ccccc3)N1CS2 (centres undefined) has a reported TGI of > 100 µM

Input Oc1c2c(c3c4c1N=CC=4CCN=3)C1(C=C(Br)C(O)C(Br)=C1)CCN2 (centres undefined) . Output TGI: 23.5 µM

* * *

System: SR leukemia
Experiment: NCI tumour cell line growth inhibition, 48 h
Where a SMILES comes first, the peptide text is derived from it. [ ]: non-standard residue; d: D form. The star is where a group is joined. ξ: configuration not given here. ξW = NC(Cc1c[nH]c2ccccc12)C(=O)O; X30 = O=C(O)[C@H]1CCC[C@H]1N*; ξF = NC(Cc1ccccc1)C(=O)O; Boc = CC(C)(C)OC(=O)*; ξK = NCCCCC(N)C(=O)O; ξT = CC(O)C(N)C(=O)O; tBu = CC(C)(C)*
Value type: TGI

[[record]]
molecule = "CC(OC(C)(C)C)C(NC(=O)C(CCCCNC(=O)OC(C)(C)C)NC(=O)C(Cc1c[nH]c2ccccc12)NC(=O)C(N)Cc1ccccc1)C(=O)NC(Cc1ccccc1)C(=O)N[C@@H]1CCC[C@@H]1C(=O)O (some centres undefined) (H-[ξF][ξW][ξK](Boc)[ξT](tBu)[ξF]-X30)"
target_of_assay = "SR leukemia"
result = "> 100 µM"


GET /value?item= O=C1CCCCCCCCCCC1CN(Cc1ccccc1)Cc1ccccc1 (centres undefined) &field=TGI returns > 100 µM

Query CCN(CC)CCNc1ccc2ncn3c4c(OC)ccc(=O)c4c(O)c1c23 yields TGI of > 31.6 µM

Record COc1ccc(CCN2COc3ccc4ccc(=O)oc4c3C2)cc1OC . Reported TGI: 50.5 µM

* * *

Test system: MALME-3M melanoma
Assay: NCI tumour cell line growth inhibition, 48 h
Reported TGI by item:

Please review the entries below; each comes with its answer.
[[record]]
compound = "O=c1cc(-c2ccccc2)nc2cc(-c3ccco3)[nH]n12"
target_of_assay = "MALME-3M melanoma"
value_type = "TGI"
result = "94.5 µM"

[[record]]
compound = "O=C(Nc1ccc(N2C(=O)CSC2c2cccs2)cc1)c1ccc(N2C(=O)CSC2c2cccs2)cc1 (centres undefined)"
target_of_assay = "MALME-3M melanoma"
value_type = "TGI"
result = "> 100 µM"

[[record]]
compound = "O=C1Cc2c(-c3ccccc3)cc(-c3ccc4ccccc4c3)nc2-c2ccccc2N1"
target_of_assay = "MALME-3M melanoma"
value_type = "TGI"
result = "31.9 µM"

[[record]]
compound = "Cc1ccc(C(CC(=O)c2ccccc2)C(C(=O)c2ccccc2)C(c2ccc(C)cc2)C2C(=O)NC(=S)NC2=O)cc1 (centres undefined)"
target_of_assay = "MALME-3M melanoma"
value_type = "TGI"
result = "> 50 µM"

[[record]]
compound = "CCN1C(=O)C(N=[N+]=[N-])(c2ccccc2)C(=O)c2ccccc21 (centres undefined)"
target_of_assay = "MALME-3M melanoma"
value_type = "TGI"
result = "> 100 µM"


Notebook: COc1cc2c3c(c1OCc1ccccc1)NCCC3NCC2 (centres undefined) , TGI read as > 100 µM

Looking up Cc1n(CC(C)C)c2c([n+]1CC(=O)c1ccc([N+](=O)[O-])cc1)C(=O)c1ccccc1C2=O , I see its TGI listed as < 0.0205 µM

Sure, the documented TGI for O=c1[nH]cnc2c1ncn2C1SC(CO)C(O)C1O (centres undefined) is > 100 µM

Looking up COc1cc(C(=O)Nc2cc(O)c(C/C=C(\C)CCC=C(C)C)c(O)c2)cc2c1O[C@]1(C)CC[C@@H](O)C(C)(C)[C@H]1C2 , I see its TGI listed as 7.46 µM

* * *

System: HOP-92 NSCLC
Experiment: NCI tumour cell line growth inhibition, 48 h
Entries annotated with measured TGI

[[record]]
compound = "NN/C(=N\\S(=O)(=O)c1cccc2nsnc12)Nc1ccc(Cl)cc1"
value_type = "TGI"
result = "> 100 µM"

[[record]]
compound = "CC1C(=O)CC[C@@]2(C)C(=O)CCCC12O (some centres not stated)"
value_type = "TGI"
result = "> 100 µM"

[[record]]
compound = "CCOC(=O)NN(C(=O)OCC)C(C(=O)c1ccc(Cl)cc1)=C1NCCN1"
value_type = "TGI"
result = "> 100 µM"

[[record]]
compound = "O=C1C(Cl)=C(Nc2ccccn2)C(=O)c2ccccc21"
value_type = "TGI"
result = "9.84 µM"

[[record]]
compound = "O=c1c2ccccc2n2n1Cc1ccccc1C2"
value_type = "TGI"
result = "> 100 µM"

[[record]]
compound = "Cc1ccc(C2SC(N)=Nc3c2c(C)nn3C(=O)c2ccc(Cl)cc2)cc1 (configuration not stated)"
value_type = "TGI"
result = "> 10 µM"


# TGI (compound: C(=C\c1nc2ccccc2s1)/c1ccc(N2CCOCC2)s1 ) is 95.3 µM

compound COCN1C(=O)[C@@H]2CCCN2C(=O)c2cc(Cl)ccc21 , TGI observed: > 100 µM

Form field TGI, entry O=C1CSC(c2ccccc2[N+](=O)[O-])N1c1ccc(-n2c(-c3ccccc3)nc3ccccc3c2=O)cc1 (configuration not stated) : 60.2 µM

Lab note: Cc1ccc(S(=O)(=O)c2ccsc2NC(=O)c2ccccc2)cc1 gave TGI of > 100 µM

Input CCOC(=O)NC(C(C(=O)OCC)C(=O)OCC)(C(F)(F)F)C(F)(F)F . Output TGI: > 100 µM

Query CN(C)c1ccc(/C=C2\N=C(c3ccccc3)N(/N=C3\C(=O)Nc4ccccc43)C2=O)cc1 yields TGI of > 100 µM

* * *

Overview of reported TGI across a group of compounds:
Test system: NCI-H23 lung
Assay: NCI tumour cell line growth inhibition, 48 h

[[record]]
compound = "CCOC(=O)NN(C(=O)OCC)C(C(=O)c1ccc(Cl)cc1)=C1NCCN1"
value_type = "TGI"
result = "> 100 µM"

[[record]]
compound = "CO[C@]12CCC(=O)N1C=Cc1c2[nH]c2ccccc12"
value_type = "TGI"
result = "> 100 µM"

[[record]]
compound = "Nc1nc(Cl)nc2c1ncn2C1CCC(COP(=O)(O)OP(=O)(O)OP(=O)(O)O)O1 (stereo not given)"
value_type = "TGI"
result = "41.6 µM"

[[record]]
compound = "Cc1cn(CCCCOC(=O)NC(CCCNC(N)=O)C(=O)O)c(=O)[nH]c1=O (stereo not given)"
value_type = "TGI"
result = "> 100 µM"


Kindly review the next compound as well.
Per the records, this compound ( CCOP(=O)(OCC)/C(C#N)=C/c1cc(O)ccc1O ) has TGI equal to > 100 µM

* * *

Tested on: HCT-116 colon
Test: NCI tumour cell line growth inhibition, 48 h
Value type: TGI

[[record]]
molecule = "COC(=O)c1c2c(cc3c1CC1(C3)Cc3ccc4c(c3C1=O)CCC4)CCC2 (stereo unspecified)"
result = "> 62.2 µM"


Reading of TGI for CCCCCCCCCCCCCCCCNc1ccc2c(c1)OCCOCCOCCOCCO2 with HCT-116 colon: 11.3 µM

Query COc1cc(/C=C2/C(=O)N=C(NC(C)=O)N2C)ccc1OC(C)=O on HCT-116 colon; TGI returned: > 100 µM

The reported HCT-116 colon TGI of O=C1c2ccccc2CCC1(Br)Br is 2.23 µM

Short answer on HCT-116 colon for N#CC(C(=O)C(=O)Nc1ccc(Cl)c(Cl)c1)c1ccc(Cl)cc1 (stereo unspecified) , TGI: 49.8 µM

The reported TGI value, HCT-116 colon, for C[N+]1(CCCC[N+]2(C)CCCCCCC2)CCCCCCC1 reads > 100 µM
